Data credit: paper PMC7816042

Molecular target: human P2X7 (Homo sapiens, UniProt Q99572)
Construct: expressed in transfected cells
Sequence (Q99572 1-595): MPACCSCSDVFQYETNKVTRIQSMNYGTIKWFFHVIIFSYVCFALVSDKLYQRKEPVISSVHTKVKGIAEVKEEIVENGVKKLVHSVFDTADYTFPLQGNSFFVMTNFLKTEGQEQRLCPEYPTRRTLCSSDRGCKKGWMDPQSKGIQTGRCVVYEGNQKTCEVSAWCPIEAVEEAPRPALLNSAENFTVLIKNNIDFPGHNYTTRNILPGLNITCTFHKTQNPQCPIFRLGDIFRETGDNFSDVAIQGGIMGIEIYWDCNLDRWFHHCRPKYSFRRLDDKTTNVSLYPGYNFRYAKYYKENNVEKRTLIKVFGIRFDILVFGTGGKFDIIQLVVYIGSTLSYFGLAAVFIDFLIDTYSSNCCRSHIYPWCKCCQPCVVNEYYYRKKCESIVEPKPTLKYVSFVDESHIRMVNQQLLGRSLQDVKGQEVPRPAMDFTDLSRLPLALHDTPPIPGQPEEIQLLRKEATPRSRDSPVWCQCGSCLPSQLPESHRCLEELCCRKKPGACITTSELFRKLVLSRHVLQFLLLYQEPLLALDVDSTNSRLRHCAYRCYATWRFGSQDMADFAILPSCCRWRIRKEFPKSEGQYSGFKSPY
Experiment: YO-PRO-1 dye uptake assay in HEK-hP2X7 cells
Type: cell-based
Details: average EC50 for ATP + vehicle of each set of experiments used; 10 µM glycoside
Listed here are molecules together with their documented EC50 ratio.

INSERT INTO assay_data (molecule, testreadout, result) VALUES
  ('CC(C)=CCC[C@](C)(O[C@@H]1O[C@H](CO[C@@H]2O[C@H](CO)[C@@H](O)[C@H](O)[C@H]2O)[C@@H](O)[C@H](O)[C@H]1O)[C@H]1CC[C@]2(C)[C@@H]1[C@H](O)C[C@@H]1[C@@]3(C)CC[C@H](O[C@@H]4O[C@H](CO)[C@@H](O)[C@H](O)[C@H]4O)C(C)(C)[C@@H]3CC[C@]12C [Gypenoside XVII, gypenoside XVII]', 'EC50 ratio', 2.4);

Quick check: EC50 ratio on human P2X7 (Homo sapiens, UniProt Q99572), item CC(C)=CCC[C@](C)(O[C@@H]1O[C@H](CO[C@@H]2OC[C@@H](O)[C@H](O)[C@H]2O)[C@@H](O)[C@H](O)[C@H]1O)[C@H]1CC[C@]2(C)[C@@H]1[C@H](O)C[C@@H]1[C@@]3(C)CC[C@H](O[C@@H]4O[C@H](CO)[C@@H](O)[C@H](O)[C@H]4O)C(C)(C)[C@@H]3CC[C@]12C [Stevenleaf (gypenoside IX), stevenleaf] ?
0.7

So what EC50 ratio did CC(C)=CCC[C@@](C)(O)[C@H]1CC[C@]2(C)[C@@H]1[C@H](O)C[C@@H]1[C@@]3(C)CC[C@H](O[C@@H]4O[C@H](CO)[C@@H](O)[C@H](O)[C@H]4O[C@@H]4O[C@H](CO)[C@@H](O)[C@H](O)[C@H]4O)C(C)(C)[C@@H]3CC[C@]12C [Ginsenoside-20(R)-Rg3, 20(R)-ginsenoside-Rg3] get with human P2X7 (Homo sapiens, UniProt Q99572)?
1.0
